# protocolText: The antagonist activity measured as inhibition of LTB4 response in aggregation of neutrophils
Consider the following compounds; for each one, report its IC50.

Query block: Give recorded IC50. COc1ccc(/C=C/CCCCOc2ccc3c(=O)c4cc(C(=O)O)ccc4oc3c2CCC(=O)O)cc1
Result block: 133 nM

Query block: // fetch IC50 given entry CCCCCCCCCCOc1ccc2c(=O)c3cc(C(=O)O)ccc3oc2c1CCC(=O)O
Result block: 513 nM

src = BindingDB's records for doi:10.1021/jm00064a006
